# run_description: Tmax in rat at 1 mg/kg, po
# Format: ADME, organism-based
# Parameters: dose 1 mg/kg, route oral
# test_conditions: in vivo
property_name: Tmax

>>> df
                           substance_smiles  property_name  result
0  CS(=O)(=O)N1CCc2c(-c3cnc(N)nc3)nc(N3CCOCC3)nc21           Tmax  48 min

* * *

# run_description: Half life in mouse at 2 mg/kg, iv
# Format: ADME, organism-based
# Parameters: dose 2 mg/kg, route intravenous
# test_conditions: in vivo
property_name: half-life (h)

                           substance_smiles  recorded_number
0  CS(=O)(=O)N1CCc2c(-c3cnc(N)nc3)nc(N3CCOCC3)nc21              1.7
